# credit: ChEMBL document CHEMBL2321859

Recorded pIC50, one value per entry.
Tested on: DLD-1
procedureText: Cytotoxicity against human DLD1 cells assessed as cell viability after 96 hrs by SRB assay
Assay type: functional, cell-based
experimentalContext: Homo sapiens, DLD-1, 96 h
pIC50: −log10 of the molar value.
measuredAttribute: pIC50

>>> numericreadout("C#C[C@H](O)[C@]12CC[C@@H](C(=C)C)[C@@H]1[C@H]1CC[C@@H]3[C@@]4(C)CCC(=O)C(C)(C)[C@@H]4CC[C@@]3(C)[C@]1(C)CC2")
4.72
>>> numericreadout("C=C(C)[C@@H]1CC[C@]2([C@H](O)C#CCN3CCCCCC3)CC[C@]3(C)[C@H](CC[C@@H]4[C@@]5(C)CC[C@H](OC(C)=O)C(C)(C)[C@@H]5CC[C@]43C)[C@@H]12")
4.39
>>> numericreadout("C=C(C)[C@@H]1CC[C@]2([C@H](O)C#CCN(C)C)CC[C@]3(C)[C@H](CC[C@@H]4[C@@]5(C)CC[C@H](OC(C)=O)C(C)(C)[C@@H]5CC[C@]43C)[C@@H]12.Cl")
4.89
>>> numericreadout("C=C(C)[C@@H]1CC[C@]2([C@H](O)C#CCN(C(C)C)C(C)C)CC[C@]3(C)[C@H](CC[C@@H]4[C@@]5(C)CC[C@H](O)C(C)(C)[C@@H]5CC[C@]43C)[C@@H]12")
5.04
>>> numericreadout("C=C(C)[C@@H]1CC[C@]2([C@@H](O)C#CCN3CCCC3)CC[C@]3(C)[C@H](CC[C@@H]4[C@@]5(C)CC[C@H](OC(C)=O)C(C)(C)[C@@H]5CC[C@]43C)[C@@H]12")
4.73
>>> numericreadout("C=CCN(CC#C[C@@H](O)[C@]12CC[C@@H](C(=C)C)[C@@H]1[C@H]1CC[C@@H]3[C@@]4(C)CC[C@H](OC(C)=O)C(C)(C)[C@@H]4CC[C@@]3(C)[C@]1(C)CC2)CC=C")
4.24
>>> numericreadout("C=C(C)[C@@H]1CC[C@]2([C@H](O)C#CCN3CCCC3)CC[C@]3(C)[C@H](CC[C@@H]4[C@@]5(C)CCC(=O)C(C)(C)[C@@H]5CC[C@]43C)[C@@H]12")
5.59
>>> numericreadout("C=C(C)[C@@H]1CC[C@]2([C@@H](O)C#CCN(CCC)CCC)CC[C@]3(C)[C@H](CC[C@@H]4[C@@]5(C)CC[C@H](OC(C)=O)C(C)(C)[C@@H]5CC[C@]43C)[C@@H]12.CI")
5.32

###

procedureText: Solubility of the compound in water/DMSO mixture
Type: physicochemical
experimentalContext: water/DMSO mixture; read-out: solubility
Use 1 (yes) when the recorded solubility is no lower than 200 µg/mL; use 0 (no) when it is lower.

>>> label("C=C(C)[C@@H]1CC[C@]2([C@H](O)C#CCN3CCCC3)CC[C@]3(C)[C@H](CC[C@@H]4[C@@]5(C)CCC(=O)C(C)(C)[C@@H]5CC[C@]43C)[C@@H]12")
"0 (no)"
>>> label("C=C(C)[C@@H]1CC[C@]2([C@H](O)C#CCN3CCOCC3)CC[C@]3(C)[C@H](CC[C@@H]4[C@@]5(C)CC[C@H](OC(C)=O)C(C)(C)[C@@H]5CC[C@]43C)[C@@H]12.Cl")
"0 (no)"
>>> label("C=C(C)[C@@H]1CC[C@]2([C@H](O)C#CCN(C)C)CC[C@]3(C)[C@H](CC[C@@H]4[C@@]5(C)CC[C@H](OC(C)=O)C(C)(C)[C@@H]5CC[C@]43C)[C@@H]12.Cl")
"1 (yes)"
>>> label("C=C(C)[C@@H]1CC[C@]2([C@H](O)C#CCN3CCNCC3)CC[C@]3(C)[C@H](CC[C@@H]4[C@@]5(C)CC[C@H](OC(C)=O)C(C)(C)[C@@H]5CC[C@]43C)[C@@H]12.Cl")
"0 (no)"
>>> label("C=C(C)[C@@H]1CC[C@]2([C@H](O)C#CCN(C3CCCCC3)C3CCCCC3)CC[C@]3(C)[C@H](CC[C@@H]4[C@@]5(C)CC[C@H](OC(C)=O)C(C)(C)[C@@H]5CC[C@]43C)[C@@H]12.Cl")
"0 (no)"
